Data origin: ChEMBL document CHEMBL2434944

biological target: UniProtKB P12931
Sequence (P12931 2-536 limits assumed): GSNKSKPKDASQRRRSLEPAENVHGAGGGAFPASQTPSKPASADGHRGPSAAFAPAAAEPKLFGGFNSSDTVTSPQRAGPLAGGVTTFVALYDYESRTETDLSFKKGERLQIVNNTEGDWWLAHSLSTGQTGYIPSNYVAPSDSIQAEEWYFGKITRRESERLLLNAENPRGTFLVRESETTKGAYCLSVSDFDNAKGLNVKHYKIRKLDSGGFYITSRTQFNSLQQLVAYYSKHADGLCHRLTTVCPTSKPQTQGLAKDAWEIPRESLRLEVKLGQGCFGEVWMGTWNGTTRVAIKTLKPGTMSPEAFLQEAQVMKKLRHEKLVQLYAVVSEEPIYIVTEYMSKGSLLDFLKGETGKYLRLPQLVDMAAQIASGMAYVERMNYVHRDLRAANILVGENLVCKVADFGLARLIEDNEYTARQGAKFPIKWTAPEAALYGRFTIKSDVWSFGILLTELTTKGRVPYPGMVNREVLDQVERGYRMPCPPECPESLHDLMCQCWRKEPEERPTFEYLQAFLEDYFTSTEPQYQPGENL
pKi: −log10 of the molar value.
Rule: pKi of 5 or more gives criterion met; anything lower gives criterion not met.

Known results for molecules:
Compound	Class assignment
Cc1ccc(-c2csc(=N)n2CC(=O)N2CCN(C)CC2)cc1	criterion met
N=c1scc(-c2ccc(Cl)cc2)n1CC(=O)N1CCOCC1	criterion not met
CC(=O)N1CCN(C(=O)Cn2c(-c3ccc(C)cc3)csc2=N)CC1	criterion not met
N=c1scc(-c2ccccc2)n1CC(=O)N1CCN(c2ccccc2)CC1	criterion not met

Would you say N=c1scc(-c2ccccc2)n1CC(=O)N1CCOCC1 shows pKi at minimum 5?
criterion not met

Would you say CN1CCN(C(=O)Cn2c(-c3ccc(Cl)cc3)csc2=N)CC1 shows pKi at minimum 5?
criterion met

Would you say CC(=O)N1CCN(C(=O)Cn2c(-c3ccccc3)csc2=N)CC1 shows pKi at minimum 5?
criterion not met

Would you say N=c1scc(-c2ccc(Cl)cc2)n1CC(=O)N1CCN(c2ccccc2)CC1 shows pKi at minimum 5?
criterion met

Would you say CC(=O)N1CCN(C(=O)Cn2c(-c3ccc(Cl)cc3)csc2=N)CC1 shows pKi at minimum 5?
criterion not met
